molecular target: Histamine H2 receptor (Homo sapiens, UniProt P25021); format: cell membranes, CHO-K1, Membrane; conditions: read-out: Ki; also: in other assays of this panel Not Active means under 50% inhibition at 10 µM
Sequence (P25021 whole entry): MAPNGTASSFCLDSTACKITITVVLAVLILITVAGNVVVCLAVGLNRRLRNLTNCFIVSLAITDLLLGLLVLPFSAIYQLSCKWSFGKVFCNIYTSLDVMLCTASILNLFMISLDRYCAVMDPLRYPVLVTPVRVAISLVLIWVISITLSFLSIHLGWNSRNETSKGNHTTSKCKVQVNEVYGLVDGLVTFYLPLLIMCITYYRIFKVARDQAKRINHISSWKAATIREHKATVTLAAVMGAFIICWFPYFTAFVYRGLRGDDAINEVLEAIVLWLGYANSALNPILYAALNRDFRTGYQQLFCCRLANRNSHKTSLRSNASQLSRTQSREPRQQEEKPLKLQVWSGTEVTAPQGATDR
Reported values of pKi for individual entries
Here pKi is given on a logarithmic scale as minus log10 of the concentration in mol/L.

In [3]: df
Out[3]:
                                   molecule   val
0  CN(C)CCCN1c2ccccc2Sc2ccccc21 [PROMAZINE]  5.55

Now look at this one.
Any idea what its pKi is? The molecule is CC/C(=C(\c1ccccc1)c1ccc(OCCN(C)C)cc1)c1ccccc1 [TAMOXIFEN]
5.03

###

molecular target: Tyrosine-protein kinase Lck (Homo sapiens, UniProt P06239); assay: DRUGMATRIX: Protein Tyrosine Kinase, LCK enzyme inhibition (substrate: Poly(Glu:Tyr)); type: cell-based, Insect cells; details: insect cells; Not Active = under 50% inhibition at 10 µM
Sequence (P06239 whole entry): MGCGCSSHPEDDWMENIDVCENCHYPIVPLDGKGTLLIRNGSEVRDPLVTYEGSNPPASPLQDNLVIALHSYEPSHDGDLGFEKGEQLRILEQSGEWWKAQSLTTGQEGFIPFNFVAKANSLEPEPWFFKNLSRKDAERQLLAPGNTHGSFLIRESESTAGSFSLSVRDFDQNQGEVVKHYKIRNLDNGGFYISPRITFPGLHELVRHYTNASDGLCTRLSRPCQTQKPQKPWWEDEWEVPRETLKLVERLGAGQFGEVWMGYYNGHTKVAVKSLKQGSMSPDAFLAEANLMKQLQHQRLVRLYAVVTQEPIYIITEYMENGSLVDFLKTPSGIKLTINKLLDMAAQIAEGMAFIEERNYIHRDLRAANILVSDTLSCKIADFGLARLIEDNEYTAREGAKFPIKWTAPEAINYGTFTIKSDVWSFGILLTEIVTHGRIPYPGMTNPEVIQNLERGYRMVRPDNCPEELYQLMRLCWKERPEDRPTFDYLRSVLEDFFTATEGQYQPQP
QUANTITY_NAME: IC50

Worked set:
COMPOUND	IC50
COc1cc2nc(N3CCN(C(=O)C4COc5ccccc5O4)CC3)nc(N)c2cc1OC (centres undefined)	Not Active
Nc1nc2c(ncn2COCCO)c(=O)[nH]1	Not Active
C[C@]12CCC(=O)C=C1CC[C@@H]1[C@@H]2CC[C@@]2(C)[C@H]1CC[C@]2(C)O	Not Active
Cc1c(O)c(=O)ccn1C	Not Active
CCCN1C[C@H](CSC)C[C@@H]2c3cccc4[nH]cc(c34)C[C@H]21 [PERGOLIDE]	Not Active
Cc1onc(-c2ccccc2Cl)c1C(=O)N[C@@H]1C(=O)N2[C@@H]1SC(C)(C)[C@@H]2C(=O)O	Not Active
CC(C)[C@H]1C(=O)N2CCC[C@H]2[C@]2(O)O[C@](NC(=O)[C@@H]3C=C4c5cccc6[nH]cc(c56)C[C@H]4N(C)C3)(C(C)C)C(=O)N12	Not Active
c1ccc2c(c1)c1cccc3ccc4cccc2c4c31 [BENZO[E]PYRENE]	Not Active
O=c1[nH]c(=O)n([C@H]2C[C@H](O)[C@@H](CO)O2)cc1I	Not Active
NC(=O)N1c2ccccc2CCc2ccccc21	Not Active

Any idea what its IC50 is? The compound is CNCCc1ccccn1
Not Active

Any idea what its IC50 is? The compound is OC(Cn1cncn1)(Cn1cncn1)c1ccc(F)cc1F
Not Active

Any idea what its IC50 is? The compound is Nc1c2c(nc3ccccc13)CCCC2
Not Active
